Reference source: ChEMBL document CHEMBL2086273

# Target under test: ATP-dependent translocase ABCB1 (Homo sapiens)
# Assay overview: Inhibition of human ABCB1 expressed in mouse L5178 cells assessed as 50% inhibition of cell proliferation at compound-doxorubicin ratio of 81.5:1 after 48 hrs by MTT assay
# Assay type: cell-based
# Experimental parameters: l5178, 48 h
Measured attribute: fractional inhibitory concentration index (FICI)

Compound	Target under test	Result
CC(C)(O)CC[C@@H](O)[C@](C)(O)[C@H]1CC[C@]2(O)C3=CC(=O)[C@@H]4C[C@@H](O)[C@@H](O)C[C@]4(C)[C@H]3CC[C@]12C	ATP-dependent translocase ABCB1 (Homo sapiens)	1.18
CC(C)(O)CC[C@H]1OC(C)(C)O[C@]1(C)[C@H]1CC[C@@]2(O)C3=CC(=O)[C@]4(O)C[C@@H](O)[C@@H](O)C[C@]4(C)[C@H]3CC[C@]12C	ATP-dependent translocase ABCB1 (Homo sapiens)	0.63
CC(C)(O)CCC[C@](C)(O)[C@H]1CC[C@@]2(O)C3=CC(=O)[C@@H]4C[C@@H](O)[C@@H](O)C[C@]4(C)[C@H]3CC[C@]12C	ATP-dependent translocase ABCB1 (Homo sapiens)	2.04
CC(=O)O[C@H](CCC(C)(C)O)[C@](C)(O)[C@H]1CC[C@@]2(O)C3=CC(=O)[C@@H]4C[C@@H](O)[C@@H](O)C[C@]4(C)[C@H]3CC[C@]12C	ATP-dependent translocase ABCB1 (Homo sapiens)	1.6
CC(C)(O)CC[C@@H](O)[C@](C)(O)[C@H]1CC[C@@]2(O)C3=CC(=O)[C@@H]4C[C@@H](O)[C@@H](O)C[C@]4(C)[C@H]3[C@H](O)C[C@]12C	ATP-dependent translocase ABCB1 (Homo sapiens)	5.19
CCC1=C(C)C(=O)O[C@@H]([C@](C)(O)[C@H]2CC[C@@]3(O)C4=CC(=O)[C@@H]5C[C@@H](O)[C@@H](O)C[C@]5(C)[C@H]4CC(=O)[C@]23C)C1	ATP-dependent translocase ABCB1 (Homo sapiens)	1.43
CC(=O)O[C@H]1C[C@]2(C)[C@H]3CC[C@]4(C)[C@@H]([C@@](C)(O)[C@@H](CCC(C)(C)OC(C)=O)OC(C)=O)CC[C@@]4(O)C3=CC(=O)[C@]2(O)C[C@H]1OC(C)=O	ATP-dependent translocase ABCB1 (Homo sapiens)	0.65
C[C@H]([C@H](O)CCC(C)(C)O)[C@H]1CC[C@@]2(O)C3=CC(=O)[C@@H]4C[C@@H](O)CC[C@]4(C)[C@H]3CC[C@]12C	ATP-dependent translocase ABCB1 (Homo sapiens)	2.05
CC(O)(CO)CC[C@@H](O)[C@](C)(O)[C@H]1CC[C@@]2(O)C3=CC(=O)[C@]4(O)C[C@@H](O)[C@@H](O)C[C@]4(C)[C@H]3CC[C@]12C (some centres undefined)	ATP-dependent translocase ABCB1 (Homo sapiens)	2.24

* * *

# Target under test: ATP-dependent translocase ABCB1 (Homo sapiens, UniProt P08183)
# Sequence (P08183 whole entry): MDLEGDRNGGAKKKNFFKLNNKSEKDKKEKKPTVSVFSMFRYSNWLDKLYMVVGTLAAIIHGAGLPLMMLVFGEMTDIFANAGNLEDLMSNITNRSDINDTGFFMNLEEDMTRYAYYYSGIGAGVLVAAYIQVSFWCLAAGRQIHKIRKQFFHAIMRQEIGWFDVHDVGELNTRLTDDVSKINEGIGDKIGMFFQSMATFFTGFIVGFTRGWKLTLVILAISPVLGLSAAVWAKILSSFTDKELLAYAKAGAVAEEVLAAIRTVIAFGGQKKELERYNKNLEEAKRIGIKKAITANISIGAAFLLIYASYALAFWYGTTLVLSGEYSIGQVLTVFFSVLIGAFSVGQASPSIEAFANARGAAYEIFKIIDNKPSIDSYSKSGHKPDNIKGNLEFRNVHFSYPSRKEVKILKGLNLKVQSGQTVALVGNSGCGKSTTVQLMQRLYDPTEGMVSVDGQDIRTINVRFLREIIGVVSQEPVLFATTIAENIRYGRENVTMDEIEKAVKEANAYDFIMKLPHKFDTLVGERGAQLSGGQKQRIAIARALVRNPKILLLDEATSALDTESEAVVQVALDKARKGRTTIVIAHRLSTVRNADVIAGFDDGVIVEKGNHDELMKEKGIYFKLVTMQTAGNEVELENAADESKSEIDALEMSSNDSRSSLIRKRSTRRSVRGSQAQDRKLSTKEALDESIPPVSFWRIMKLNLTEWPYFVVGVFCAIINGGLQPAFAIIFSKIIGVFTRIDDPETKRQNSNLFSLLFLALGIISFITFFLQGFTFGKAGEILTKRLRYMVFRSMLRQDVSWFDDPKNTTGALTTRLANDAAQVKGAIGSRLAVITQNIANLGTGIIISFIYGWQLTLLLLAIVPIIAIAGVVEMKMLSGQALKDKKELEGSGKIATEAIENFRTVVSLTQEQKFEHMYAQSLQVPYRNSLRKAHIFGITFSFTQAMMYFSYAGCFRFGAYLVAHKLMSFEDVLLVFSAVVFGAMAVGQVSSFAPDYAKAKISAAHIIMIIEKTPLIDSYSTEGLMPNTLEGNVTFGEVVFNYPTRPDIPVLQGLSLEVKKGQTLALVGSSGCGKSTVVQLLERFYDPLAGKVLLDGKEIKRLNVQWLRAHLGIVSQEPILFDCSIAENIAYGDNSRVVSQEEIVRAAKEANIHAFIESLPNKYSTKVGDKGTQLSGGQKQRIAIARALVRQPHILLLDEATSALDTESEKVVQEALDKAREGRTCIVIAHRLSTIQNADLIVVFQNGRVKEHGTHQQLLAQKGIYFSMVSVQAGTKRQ
# Assay overview: Inhibition of human ABCB1 expressed in mouse L5178 cells assessed as 95% inhibition of cell proliferation at compound-doxorubicin ratio of 40.8:1 after 48 hrs by MTT assay
# Format: cell-based
# Experimental parameters: l5178, 48 h
Measured attribute: fractional inhibitory concentration index (FICI)

Molecule	Result
C=C(C)C(C[C@@H](O)[C@](C)(O)[C@H]1CC[C@@]2(O)C3=CC(=O)[C@]4(O)C[C@@H](O)[C@@H](O)C[C@]4(C)[C@H]3CC[C@]12C)C(C)O (stereo not given in full)	0.3
CC(C)(O)CCC[C@](C)(O)[C@H]1CC[C@@]2(O)C3=CC(=O)[C@@H]4C[C@@H](O)[C@@H](O)[C@@H](O)[C@]4(C)[C@H]3CC[C@]12C	0.6
C=C(CCCC(C)(C)O)[C@H]1CC[C@@]2(O)C3=CC(=O)[C@@H]4C[C@@H](O)[C@@H](O)C[C@]4(C)[C@H]3CC[C@]12C	0.53
CC(=O)O[C@H]1C[C@]2(C)[C@H]3CC[C@]4(C)[C@@H]([C@@](C)(O)[C@@H](CCC(C)(C)O)OC(C)=O)CC[C@@]4(O)C3=CC(=O)[C@]2(O)C[C@H]1O	0.6
CC(C)(O)CC[C@H]1OC(C)(C)O[C@]1(C)[C@H]1CC[C@@]2(O)C3=CC(=O)[C@@H]4C[C@@H](O)[C@@H](O)[C@@H](O)[C@]4(C)[C@H]3CC[C@]12C	0.23

* * *

# Target under test: ATP-dependent translocase ABCB1 (Homo sapiens, UniProt P08183)
# Assay overview: Inhibition of human ABCB1 pump expressed in mouse L5178 cells assessed as fluorescence activity ratio at 20 uM for 10 mins by flow cytometry relative to control
# Format: cell-based
# Experimental parameters: l5178, 10 min
Measured attribute: Ratio

Molecule	Result
C=C(C)CC[C@@H](O)[C@](C)(O)[C@H]1CC[C@@]2(O)C3=CC(=O)[C@@H]4C[C@@H](O)[C@@H](O)C[C@]4(C)C3=CC[C@]12C	1.43
CC(C)(O)CC[C@@H](O)[C@](C)(O)[C@H]1CC[C@@]2(O)C3=CC(=O)[C@@H]4C[C@@H](O)[C@@H](O)C[C@]4(C)[C@H]3CC[C@]12C [20-HYDROXYECDYSONE]	1.76
CC1(CC[C@H]2OC(C)(C)O[C@]2(C)[C@H]2CC[C@@]3(O)C4=CC(=O)[C@@H]5C[C@H]6OC(C)(C)O[C@H]6C[C@]5(C)[C@H]4CC[C@]23C)COC(C)(C)O1 (stereo partly specified)	24.39
CC(=O)O[C@H]1C[C@]2(C)[C@H]3CC[C@]4(C)[C@@H]([C@@](C)(O)[C@@H](CCC(C)(C)OC(C)=O)OC(C)=O)CC[C@@]4(O)C3=CC(=O)[C@]2(O)C[C@H]1OC(C)=O	1.48
CC(C)(O)CC[C@H]1OC(C)(C)O[C@]1(C)[C@H]1CC[C@@]2(O)C3=CC(=O)[C@@H]4C[C@@H](O)[C@@H](O)[C@@H](O)[C@]4(C)[C@H]3CC[C@]12C	1.14
CC(C)(O)CC[C@@H](O)[C@](C)(O)[C@H]1CC[C@@]2(O)C3=CC(=O)[C@H]4C[C@@H](O)[C@@H](O)C[C@]4(C)[C@H]3CC[C@]12C	0.81

* * *

# Target under test: ATP-dependent translocase ABCB1 (Homo sapiens, UniProt P08183)
# Assay overview: Inhibition of human ABCB1 expressed in mouse L5178 cells assessed as 95% inhibition of cell proliferation at compound-doxorubicin ratio of 20.4:1 after 48 hrs by MTT assay
# Format: cell-based
# Experimental parameters: l5178, 48 h
This listing pairs molecules with measured fractional inhibitory concentration index (FICI).
Measured attribute: fractional inhibitory concentration index (FICI)

> print(dat)
                            compound.smiles  result
1  CC(C)(O)CC[C@H]1OC(C)(C)O[C@]1(C)[C@H]1CC[C@@]2(O)C3=CC(=O)[C@@H]4C[C@@H](O)CC[C@]4(C)[C@H]3CC[C@]12C   0.091
2  CC(=O)O[C@H]1CC[C@@]2(C)[C@@H](C1)C(=O)C=C1[C@@H]2CC[C@]2(C)[C@@H]([C@H](C)[C@@H](CCC(C)(C)O)OC(C)=O)CC[C@@]12O     0.5
3  CC(C)CC[C@H]1OC(C)(C)O[C@]1(C)[C@H]1CC[C@@]2(O)C3=CC(=O)[C@@H]4C[C@H]5OC(C)(C)O[C@H]5C[C@]4(C)[C@H]3[C@H](O)C[C@]12C    0.12
4  CC(C)(O)CC[C@@H](O)[C@](C)(O)[C@H]1CC[C@@]2(O)C3=CC(=O)[C@H]4C[C@@H](O)C[C@@H](O)[C@]4(C)[C@H]3CC[C@]12C    1.97
5  CC(C)(O)CC[C@H]1OC(C)(C)O[C@]1(C)[C@H]1CC[C@@]2(O)C3=CC(=O)[C@@H]4C[C@H]5OC(C)(C)O[C@H]5[C@@H](O)[C@]4(C)[C@H]3CC[C@]12C    0.24
